run_description: Solubility of Ipriflavon in aqueous cyclodextrin solutions (4 days agitation, 25° C., photometric)
Format: physicochemical
recorded_conditions: aqueous α-cd 110 mg/ml, Solubility of Ipriflavon
measurement_type: solubility at 96 h (µg/mL)
Give just the numeric value; µg/mL need not be written.

Consider `CC(C)Oc1ccc2c(=O)c(-c3ccccc3)coc2c1` . Its measured solubility at 96 h is 19

----------
run_description: Solubility of Ipriflavon in aqueous cyclodextrin solutions (4 days agitation, 25° C., photometric)
Format: physicochemical
recorded_conditions: aqueous γ-cd 20 mg/ml, Solubility of Ipriflavon
measurement_type: solubility at 96 h (µg/mL)
Give just the numeric value; µg/mL need not be written.

Consider CC(C)Oc1ccc2c(=O)c(-c3ccccc3)coc2c1 [Ipriflavon, 7-isopropoxy-isoflavon] . Its measured solubility at 96 h is 2.38
